pIC50: −log10 of the molar value.
Collected pIC50 for UniProtKB Q92918 across several studies; compounds listed below.

Example results:
{"columns": ["compound", "meas_value"],
 "data": [
  ["COc1cccc(F)c1-n1nc2c(-c3ccc(N4CCN(CCO)CC4)cc3)n[nH]c2cc1=O", "≥ 7.30"],
  ["CN(C)Cc1nc(Nc2ccc(-c3ccnc4c3ccn4C)c3c2C(=O)NC3)ccc1[C@@H]1CCOC1", "> 7.00"],
  ["COc1nc2c(cc1Nc1ncc3cccc(-c4cccnc4OC)c3n1)CN(C)CC2", "> 10.00"],
  ["CN1CC(Oc2nc(Nc3ccc(-c4cnc5cc(F)ccn45)c4c3C(=O)NC4)ccc2[C@H]2CCOC2)C1", "> 7.00"],
  ["Cc1cc(-c2cnc(N)c(-n3ncc4cc(CO)ccc43)n2)cc2c1CCN(C)C2", 7.12]
]}

State the recorded pIC50 for this entry: "Cn1ccc2c(-c3ccc(Nc4ccc(N5CCNCC5)cn4)c4c3CNC4=O)ccnc21"
> 7.00

Same question, COC(=O)C1CC2CC(CC(Nc3nc(Nc4cc5c(cc4OC)CCN(C)C5)ncc3C(N)=O)C2)C1 (stereo not shown) this time
9.22

====

Collected IC50 for HPK1 (Homo sapiens (Human)) across several studies; molecules listed below.

{"columns": ["molecule", "experimental_system", "IC50"],
 "data": [
  ["CN1C[C@H](c2ccc(Nc3ccc(-c4cnc5cnccn45)c4c3C(=O)NC4)nc2)CCC1=O", "HPK1 (Homo sapiens (Human))", "< 100 nM"],
  ["COc1cc2c(cc1Nc1ncc(C(N)=O)c(Nc3ccccc3Br)n1)CN(C(=O)C1(N(C)C)CCC1)CC2", "HPK1 (Homo sapiens (Human))", "1.96 nM"],
  ["Cn1ccc2c(-c3ccc(Nc4ccc(N5CCNCC5)cn4)c4c3CNC4=O)ncnc21", "HPK1 (Homo sapiens (Human))", "< 100 nM"],
  ["COc1cc(C(C)S(C)(=O)=O)ccc1Nc1ncc2c(N)c(F)c(-c3cnc4c(c3C)NCCO4)cc2n1 (single isomer, unassigned)", "HPK1 (Homo sapiens (Human))", "0.102 nM"]
]}

State the recorded IC50 for this entry: "Cn1ccc2c(-c3ncc(Nc4cccc(N5CC[C@@H](N6CCCC6)C5)n4)c4c3CNC4=O)ccnc21"
< 100 nM

Same question, "COc1c(C(=O)N2CCCCC2)ccc(-c2cc(Nc3ccc(N4CCC(O)CC4)cn3)c3c(=O)[nH]ccc3n2)c1F" this time
≤ 100 nM

Same question, O=C1NCc2c(-c3cnc4cc(F)ccn34)ccc(Nc3ccc(N4CCO[C@@H](C5(O)CC5)C4)cn3)c21 (single isomer, unassigned) this time
< 100 nM

Same question, "CCC1(C(=O)Nc2ccc(-c3cc(Nc4ccc(N5CCC(O)CC5)cn4)c4c(=O)[nH]ccc4n3)c(F)c2)CC1" this time
≤ 100 nM

====

Collected IC50 for HPK1 (Homo sapiens (Human)) across several studies; molecules listed below.

{"columns": ["molecule", "meas_value"],
 "data": [
  ["CNc1ncc2c(n1)N1CCN=C1C(c1cc(NC(=O)c3cc(C(C)(C)C#N)ccn3)c(F)cc1C)=C2", "< 0.1 µM"],
  ["CN1CC(c2cccc(Nc3cnc(-c4ccnc5c4ccn5C)c4c3C(=O)NC4)n2)C1", "> 1 µM"],
  ["COc1cccc(F)c1-c1cc2c(-c3ccc4c(c3)OCC3CN(C)CCN43)n[nH]c2cc1C#N (stereo not drawn)", "≤ 0.01 µM"],
  ["[2H]C([2H])([2H])C([2H])(n1ncc2c(N3C[C@@H](N)C(C)(C)C3)c(NC(=O)c3ccc(=O)n(-c4c(F)cccc4F)n3)ccc21)C([2H])([2H])[2H]", "< 0.1 µM"],
  ["COc1cc2c(cc1Nc1ncc(C(N)=O)c(Nc3ccccc3-c3cncs3)n1)CN(C)CC2", "0.00275 µM"]
]}

State the recorded IC50 for this entry: "COc1cc2c(cc1Nc1ncc(C(N)=O)c(Nc3ccccc3CC3(C#N)CC3)n1)CN(C)CC2"
0.23 µM

Same question, "O=c1[nH]ccc2nc(N3CCC[C@@H](O)C3)cc(Nc3ccc(N4CCC(O)CC4)cn3)c12" this time
0.1 to 1 µM

====

pIC50: −log10 of the molar value.
Collected pIC50 for HPK1 (Homo sapiens (Human)) across several studies; compounds listed below.

Example results:
{"columns": ["compound", "pIC50"],
 "data": [
  ["Cc1c(-c2cc3nc(Nc4cc5n(n4)CCN(C(C)C)C(=O)C5)ncc3c(N)c2F)cnc2c1NCCO2", 10.20],
  ["O=C(c1ccc(-c2cc(Nc3ccc(N4CCNCC4)cn3)c3c(=O)[nH]ccc3n2)c(F)c1)N1CC2CCC1CC2", "≥ 7.00"],
  ["CN(C)Cc1nc(Nc2ccc(-c3cnc4cc(F)ccn34)c3c2C(=O)NC3)cnc1[C@H]1CCOC1", "> 7.00"],
  ["CC(C)c1nc2c(N3CC[C@@](C)(O)C3)c(NC(=O)c3ccc(=O)n(-c4c(F)cccc4F)n3)ccc2n1C", "> 7.00"],
  ["COc1cccc(C)c1-n1nc2c(-c3ccc(N4CCN(C)CC4)nc3)n[nH]c2cc1=O", "6.30 to 7.30"],
  ["C/C(Nc1ccn(CC(C)(C)O)n1)=C1/C(=O)Nc2cnc(-c3c(C)cccc3F)cc21", "7.00 to 7.30"]
]}

State the recorded pIC50 for this entry: Cc1cncc(-c2cc3c(-c4ccc5c(c4)OCC4CN(C)CCN54)n[nH]c3cc2C#N)c1 (stereo not shown)
≥ 8.00

====

Collected IC50 for HPK1 (Homo sapiens (Human), UniProt Q92918) across several studies; compounds listed below.

{"columns": ["compound", "IC50"],
 "data": [
  ["CN1CCc2c(cc(Nc3ncc4ccnc(N5CCOCC5)c4n3)c(=O)n2C)C1", "2.19 nM"],
  ["C/C(Nc1cc(C)n(C[C@@H](C)O)n1)=C1/C(=O)Nc2cnc(-c3cnccc3C)cc21", "< 50 nM"],
  ["COc1cc(C#N)cc(F)c1-n1nc2c(-c3ccc(N4CCN(C)CC4)cc3)n[nH]c2cc1=O", "≤ 50 nM"],
  ["Cc1cccc(F)c1-n1nc2c(-c3ccc(N4CCN(C)C(CO)C4)cc3)n[nH]c2cc1=O (stereo not shown)", "≤ 50 nM"]
]}

State the recorded IC50 for this entry: "Cn1c(C(C)(C)C)nc2c(N3CCC[C@H]3CN)c(NC(=O)c3ccc(=O)n(-c4c(F)cccc4F)n3)ccc21"
< 100 nM

Same question, "Cc1nc2c(N3CCN(C)CC3)c(NC(=O)c3ccc(=O)n(-c4c(F)cccc4F)n3)ccc2n1C" this time
100 to 1000 nM

Same question, "CNC(=O)c1cccc(Nc2nc(Nc3cc4c(cc3OC)CCN(C)C4)ncc2C(N)=O)c1" this time
7.77 nM

Same question, CN(CCO)Cc1nc(Nc2ccc(-c3cnc4cc(F)ccn34)c3c2C(=O)NC3)ccc1C1CCOC1 (stereo in doubt) this time
< 100 nM

Same question, "COc1cc2c(cc1Nc1ncc(C(N)=O)c(NCc3cccc(F)c3F)n1)CN(C)CC2" this time
0.95 nM

Same question, "O=C1NCc2c(-c3cnc4cc(F)ccn34)ccc(Nc3ccc(N4CCOC[C@H](O)C4)cn3)c21" this time
< 100 nM

====

Collected pIC50 for HPK1 (Homo sapiens (Human)) across several studies; compounds listed below.
pIC50: −log10 of the molar value.

Example results:
{"columns": ["compound", "pIC50"],
 "data": [
  ["COc1cccc(F)c1-c1ccc2c(c1)/C(=C(\\C)Nc1cnn(C)c1)C(=O)N2", "> 7.30"],
  ["COc1cccc(F)c1-c1ncc2[nH]cc(-c3ccc4c(c3)OCC3CN(C)CCN43)c2n1 (stereo not drawn)", "7.00 to 8.00"],
  ["COC1(c2ccc(Nc3ccc(-c4cnc5cc(F)ccn45)c4c3C(=O)NC4)nc2CN(C)C)CCOCC1", "> 7.00"]
]}

State the recorded pIC50 for this entry: "O=C(Nc1ccc(-c2cc(Nc3ccc(N4CCC(O)CC4)cn3)c3c(=O)[nH]ccc3n2)c(F)c1)C1CCCCC1"
< 6.00

Same question, "CC(C)(O)C1CCN(c2ccc(Nc3ccc(-c4cnc5cc(F)ccn45)c4c3C(=O)NC4)nc2)CC1" this time
> 7.00

Same question, "O=c1[nH]ccc2nc(-c3cc(CN4CCCC4)ccc3F)cc(Nc3ccc(N4CCC(O)CC4)cn3)c12" this time
≥ 7.00

Same question, "CC(C)c1nc2c(N3CC[C@@H](NCCO)C3)c(NC(=O)c3ccc(=O)n(-c4c(F)cccc4F)n3)ccc2n1C" this time
> 7.00

Same question, "COc1nc2c(cc1Nc1ncc3ccnc(N[C@H]4CCC[C@H]4O)c3n1)CN(C)CC2" this time
> 10.00

Same question, "CN1CCN(c2ccc3nc(-c4c(N[C@H]5CCCC[C@H]5O)c5sccc5[nH]c4=O)[nH]c3c2)CC1" this time
≥ 7.30

Same question, O=C1NCc2c(-c3cnc4cc(F)ccn34)ccc(Nc3ccc([C@@H]4CCOC4)c(CNCC(F)F)n3)c21 (single isomer, unassigned) this time
> 7.00

Same question, "COc1cccc(F)c1-c1ccc2c(c1)/C(=C(\C)Nc1ccc(N3CCNCC3)cc1)C(=O)N2" this time
> 7.30

Same question, "COC[C@@H]1CN(c2ccc(Nc3cnc(-c4ccnc5c4ccn5C)c4c3C(=O)NC4)nc2CN(C)C)CCO1" this time
> 7.00

Same question, "Cn1ncc(Nc2ncc(C(N)=O)c(Nc3cccc4c3CCNC4=O)n2)c1C(F)(F)F" this time
6.60

Same question, "COc1ccccc1-c1nccc2cnc(Nc3cc4c(nc3OC)CCN(C)C4)nc12" this time
9.80

Same question, "Cc1ccc(NC(=O)c2cc(C(F)(F)F)ccn2)cc1C1=Cc2cnc(Nc3ncccc3F)nc2N2CCN=C12" this time
5.00 to 7.00
